Reference for the values: ChEMBL document CHEMBL1153427

Molecular target: Cytochrome P450 2C9 (Homo sapiens, UniProt P11712)
Sequence (P11712 whole entry): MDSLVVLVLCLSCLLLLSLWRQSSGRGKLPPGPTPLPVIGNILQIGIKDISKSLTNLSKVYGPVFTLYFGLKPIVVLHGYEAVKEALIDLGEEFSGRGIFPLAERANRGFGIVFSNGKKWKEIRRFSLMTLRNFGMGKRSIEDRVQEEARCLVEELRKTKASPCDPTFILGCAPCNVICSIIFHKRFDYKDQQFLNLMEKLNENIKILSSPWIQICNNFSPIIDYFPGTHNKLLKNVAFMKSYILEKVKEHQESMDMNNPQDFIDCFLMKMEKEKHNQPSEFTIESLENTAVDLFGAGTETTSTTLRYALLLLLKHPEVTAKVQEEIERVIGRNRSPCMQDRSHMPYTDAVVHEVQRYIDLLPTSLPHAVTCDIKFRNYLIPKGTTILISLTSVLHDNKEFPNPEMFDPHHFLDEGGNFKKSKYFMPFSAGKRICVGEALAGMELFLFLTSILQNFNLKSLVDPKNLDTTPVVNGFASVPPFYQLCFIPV
assay_readout: IC50 (µM)

[[record]]
sample_smiles = "O=C([C@@H]1C[C@H]1c1ccc(C(F)(F)F)cc1)N1CCN(S(=O)(=O)c2cc(-c3nnc[nH]3)cc(C(F)(F)F)c2)CC1"
units = "µM"
readout_number = 6


---

Molecular target: Cannabinoid receptor 1 (Homo sapiens, UniProt P21554)
Sequence (P21554 whole entry): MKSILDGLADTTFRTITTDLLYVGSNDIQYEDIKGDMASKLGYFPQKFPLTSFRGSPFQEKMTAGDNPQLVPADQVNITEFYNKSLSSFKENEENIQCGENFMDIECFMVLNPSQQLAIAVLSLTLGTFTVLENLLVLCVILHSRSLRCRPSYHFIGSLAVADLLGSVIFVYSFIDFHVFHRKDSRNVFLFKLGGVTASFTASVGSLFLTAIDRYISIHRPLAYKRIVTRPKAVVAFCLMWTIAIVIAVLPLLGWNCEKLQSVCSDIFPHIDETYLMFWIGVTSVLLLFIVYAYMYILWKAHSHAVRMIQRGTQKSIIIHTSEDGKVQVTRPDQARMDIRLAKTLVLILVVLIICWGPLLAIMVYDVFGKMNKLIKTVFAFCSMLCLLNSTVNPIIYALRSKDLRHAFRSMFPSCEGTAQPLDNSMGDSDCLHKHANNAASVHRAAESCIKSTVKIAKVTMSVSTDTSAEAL
Experiment: Inverse agonist activity at human recombinant CB1R expressed in CHO cells assessed as increase in forskolin-stimulated cAMP level
Format: functional, cell-based
pEC50: −log10 of the molar value.
assay_readout: pEC50

[[record]]
compound = "CC(C(=O)N1CCN(S(=O)(=O)c2cc(Cl)cc(Cl)c2)CC1)c1ccc(C(F)(F)F)cc1 (stereo in doubt; 20a)"
assay_readout = "pEC50"
value_qualifier = "="
readout_number = 8.82

[[record]]
compound = "O=C(Cc1cccc(C(F)(F)F)c1)N1CCN(S(=O)(=O)c2cc(Cl)cc(Cl)c2)CC1"
assay_readout = "pEC50"
value_qualifier = "="
readout_number = 8.34

[[record]]
compound = "O=C(Cc1ccc(C(F)(F)F)cc1)N1CCN(S(=O)(=O)c2cc(C(F)(F)F)cc(C(F)(F)F)c2)CC1"
assay_readout = "pEC50"
value_qualifier = "="
readout_number = 9.00

[[record]]
compound = "O=C(C1CC1)N1CCN(S(=O)(=O)c2cc(Cl)c(Cl)cc2Cl)CC1"
assay_readout = "pEC50"
value_qualifier = "="
readout_number = 5.82

[[record]]
compound = "O=C(Cc1ccccc1C(F)(F)F)N1CCN(S(=O)(=O)c2cc(Cl)cc(Cl)c2)CC1"
assay_readout = "pEC50"
value_qualifier = "="
readout_number = 8.66

[[record]]
compound = "O=C(Cc1ccc(C(F)(F)F)cc1)N1CC(NS(=O)(=O)c2cc(C(F)(F)F)cc(C(F)(F)F)c2)C1"
assay_readout = "pEC50"
value_qualifier = "<"
readout_number = 5.00

[[record]]
compound = "O=C(Cc1ccc(C(F)(F)F)cc1)N1CCN(S(=O)(=O)c2cc(Br)cc(C(F)(F)F)c2)CC1"
assay_readout = "pEC50"
value_qualifier = "="
readout_number = 9.00

[[record]]
compound = "O=C([C@@H]1C[C@H]1c1ccc(C(F)(F)F)cc1)N1CCN(S(=O)(=O)c2cc(C3CC3)cc(C(F)(F)F)c2)CC1"
assay_readout = "pEC50"
value_qualifier = "="
readout_number = 8.24


---

Assay: Volume of distribution at steady state in rhesus monkey
Type: ADME, organism-based, Macaca mulatta
Conditions: in vivo, read-out: Vdss
assay_readout: Vd (L/kg)

[[record]]
sample_smiles = "O=C([C@@H]1C[C@H]1c1ccc(C(F)(F)F)cc1)N1CCN(S(=O)(=O)c2cc(-c3nnc[nH]3)cc(C(F)(F)F)c2)CC1"
units = "L/kg"
readout_number = 2.5


---

Assay: Plasma clearance in Sprague-Dawley rat at 1 mg/kg, iv and 2 mg/kg, po
Assay type: ADME, organism-based
assay_readout: clearance (mL/min/kg)

[[record]]
sample_smiles = "O=C([C@@H]1C[C@H]1c1ccc(C(F)(F)F)cc1)N1CCN(S(=O)(=O)c2cc(-c3nnc[nH]3)cc(C(F)(F)F)c2)CC1"
assay_readout = "clearance"
units = "mL/min/kg"
readout_number = 23.7

[[record]]
sample_smiles = "O=C(c1ccc(C(F)(F)F)cc1)N1CCN(S(=O)(=O)c2cc(C3CC3)cc(C(F)(F)F)c2)CC1"
assay_readout = "clearance"
units = "mL/min/kg"
readout_number = 1.9

[[record]]
sample_smiles = "O=C([C@@H]1C[C@H]1c1ccc(C(F)(F)F)cc1)N1CCN(S(=O)(=O)c2cc(C3CC3)cc(C(F)(F)F)c2)CC1"
assay_readout = "clearance"
units = "mL/min/kg"
readout_number = 3.7


---

Let's look at some compounds and their measured Activity.
System: Rattus norvegicus
Assay: Reduction of body weight in diet induced obese Sprague-Dawley rat at 3 mg/kg, po
Format: functional
assay_readout: Activity (g)

[[record]]
compound = "O=C(c1ccc(C(F)(F)F)cc1)N1CCN(S(=O)(=O)c2cc(C3CC3)cc(C(F)(F)F)c2)CC1"
readout_number = 8

[[record]]
compound = "O=C(Cc1ccc(C(F)(F)F)cc1)N1CCN(S(=O)(=O)c2cc(C3CC3)cc(C(F)(F)F)c2)CC1"
readout_number = -2

[[record]]
compound = "O=C([C@@H]1C[C@H]1c1ccc(C(F)(F)F)cc1)N1CCN(S(=O)(=O)c2cc(-c3ccn[nH]3)cc(C(F)(F)F)c2)CC1"
readout_number = -10

[[record]]
compound = "O=C([C@@H]1C[C@H]1c1ccc(C(F)(F)F)cc1)N1CCN(S(=O)(=O)c2cc(-c3nnc[nH]3)cc(C(F)(F)F)c2)CC1"
readout_number = -14

[[record]]
compound = "O=C([C@@H]1C[C@H]1c1ccc(C(F)(F)F)cc1)N1CCN(S(=O)(=O)c2cc(C(O)C(F)(F)F)cc(C(F)(F)F)c2)CC1 (mixture of isomers)"
readout_number = -8

[[record]]
compound = "O=C([C@@H]1C[C@H]1c1ccc(C(F)(F)F)cc1)N1CCN(S(=O)(=O)c2cc(C3CC3)cc(C(F)(F)F)c2)CC1"
readout_number = -14


---

Molecular target: Cannabinoid receptor 1 (Rattus norvegicus, UniProt P20272)
Sequence (P20272 whole entry): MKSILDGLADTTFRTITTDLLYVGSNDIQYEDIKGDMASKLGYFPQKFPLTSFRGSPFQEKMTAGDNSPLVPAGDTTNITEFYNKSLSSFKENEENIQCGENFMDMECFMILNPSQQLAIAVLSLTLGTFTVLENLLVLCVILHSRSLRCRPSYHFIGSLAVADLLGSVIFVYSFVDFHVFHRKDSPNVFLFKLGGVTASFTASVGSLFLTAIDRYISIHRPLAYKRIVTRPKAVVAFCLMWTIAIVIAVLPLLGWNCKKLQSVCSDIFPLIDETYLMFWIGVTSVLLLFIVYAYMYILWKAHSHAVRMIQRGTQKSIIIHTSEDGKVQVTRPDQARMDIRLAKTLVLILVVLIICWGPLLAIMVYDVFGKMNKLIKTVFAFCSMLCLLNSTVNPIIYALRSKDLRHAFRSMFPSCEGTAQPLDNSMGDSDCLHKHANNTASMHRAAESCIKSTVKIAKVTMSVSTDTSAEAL
Assay: Displacement of [3H]CP-55940 from rat recombinant CB1R expressed in CHO cells
Format: cell-based
assay_readout: IC50 (nM)

[[record]]
sample_smiles = "O=C(c1ccc(C(F)(F)F)cc1)N1CCN(S(=O)(=O)c2cc(C3CC3)cc(C(F)(F)F)c2)CC1"
assay_readout = "IC50"
readout_number = 175

[[record]]
sample_smiles = "O=C(Cc1ccc(C(F)(F)F)cc1)N1CCN(S(=O)(=O)c2cc(C3CC3)cc(C(F)(F)F)c2)CC1"
assay_readout = "IC50"
readout_number = 27

[[record]]
sample_smiles = "O=C([C@@H]1C[C@H]1c1ccc(C(F)(F)F)cc1)N1CCN(S(=O)(=O)c2cc(C3CC3)cc(C(F)(F)F)c2)CC1"
assay_readout = "IC50"
readout_number = 2.2


---

Target: Cannabinoid receptor 2 (Homo sapiens, UniProt P34972)
Sequence (P34972 whole entry): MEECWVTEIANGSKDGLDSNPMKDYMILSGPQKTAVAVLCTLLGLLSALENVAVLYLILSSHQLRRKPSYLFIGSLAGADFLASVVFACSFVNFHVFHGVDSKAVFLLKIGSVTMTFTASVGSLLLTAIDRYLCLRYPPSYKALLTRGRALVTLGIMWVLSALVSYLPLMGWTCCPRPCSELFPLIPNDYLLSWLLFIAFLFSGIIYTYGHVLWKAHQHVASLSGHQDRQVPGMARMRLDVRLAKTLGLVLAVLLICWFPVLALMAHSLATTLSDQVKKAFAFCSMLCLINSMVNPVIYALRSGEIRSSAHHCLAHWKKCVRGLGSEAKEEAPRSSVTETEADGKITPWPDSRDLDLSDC
Assay: Displacement of [3H]CP-55940 from human recombinant CB2R expressed in CHO cells
pIC50: −log10 of the molar value.
assay_readout: pIC50

[[record]]
sample_smiles = "O=C([C@@H]1C[C@H]1c1ccc(C(F)(F)F)cc1)N1CCN(S(=O)(=O)c2cc(-n3nccn3)cc(C(F)(F)F)c2)CC1"
result = "< 5.00"

[[record]]
sample_smiles = "O=C([C@@H]1C[C@H]1c1ccc(C(F)(F)F)cc1)N1CCN(S(=O)(=O)c2cc(CCO)cc(C(F)(F)F)c2)CC1"
result = "< 5.00"

[[record]]
sample_smiles = "Cc1nnc(-c2cc(C(F)(F)F)cc(S(=O)(=O)N3CCN(C(=O)[C@@H]4C[C@H]4c4ccc(C(F)(F)F)cc4)CC3)c2)[nH]1"
result = "< 5.00"

[[record]]
sample_smiles = "O=C([C@@H]1C[C@H]1c1ccc(C(F)(F)F)cc1)N1CCN(S(=O)(=O)c2cc(-c3ccn[nH]3)cc(C(F)(F)F)c2)CC1"
result = "< 5.00"

[[record]]
sample_smiles = "O=C(Cc1ccc(C(F)(F)F)cc1)N1CCN(S(=O)(=O)c2cc(C(F)(F)F)cc(C(F)(F)F)c2)CC1"
result = "< 5.00"

[[record]]
sample_smiles = "O=C(C1CCCCC1)N1CCN(S(=O)(=O)c2cccc3ccccc23)CC1"
result = "< 5.00"

[[record]]
sample_smiles = "O=C([C@@H]1C[C@H]1c1ccc(C(F)(F)F)cc1)N1CCN(S(=O)(=O)c2cc(-c3ncon3)cc(C(F)(F)F)c2)CC1"
result = "< 5.00"


---

Target: Voltage-gated inwardly rectifying potassium channel KCNH2 (Homo sapiens, UniProt Q12809)
Sequence (Q12809 whole entry): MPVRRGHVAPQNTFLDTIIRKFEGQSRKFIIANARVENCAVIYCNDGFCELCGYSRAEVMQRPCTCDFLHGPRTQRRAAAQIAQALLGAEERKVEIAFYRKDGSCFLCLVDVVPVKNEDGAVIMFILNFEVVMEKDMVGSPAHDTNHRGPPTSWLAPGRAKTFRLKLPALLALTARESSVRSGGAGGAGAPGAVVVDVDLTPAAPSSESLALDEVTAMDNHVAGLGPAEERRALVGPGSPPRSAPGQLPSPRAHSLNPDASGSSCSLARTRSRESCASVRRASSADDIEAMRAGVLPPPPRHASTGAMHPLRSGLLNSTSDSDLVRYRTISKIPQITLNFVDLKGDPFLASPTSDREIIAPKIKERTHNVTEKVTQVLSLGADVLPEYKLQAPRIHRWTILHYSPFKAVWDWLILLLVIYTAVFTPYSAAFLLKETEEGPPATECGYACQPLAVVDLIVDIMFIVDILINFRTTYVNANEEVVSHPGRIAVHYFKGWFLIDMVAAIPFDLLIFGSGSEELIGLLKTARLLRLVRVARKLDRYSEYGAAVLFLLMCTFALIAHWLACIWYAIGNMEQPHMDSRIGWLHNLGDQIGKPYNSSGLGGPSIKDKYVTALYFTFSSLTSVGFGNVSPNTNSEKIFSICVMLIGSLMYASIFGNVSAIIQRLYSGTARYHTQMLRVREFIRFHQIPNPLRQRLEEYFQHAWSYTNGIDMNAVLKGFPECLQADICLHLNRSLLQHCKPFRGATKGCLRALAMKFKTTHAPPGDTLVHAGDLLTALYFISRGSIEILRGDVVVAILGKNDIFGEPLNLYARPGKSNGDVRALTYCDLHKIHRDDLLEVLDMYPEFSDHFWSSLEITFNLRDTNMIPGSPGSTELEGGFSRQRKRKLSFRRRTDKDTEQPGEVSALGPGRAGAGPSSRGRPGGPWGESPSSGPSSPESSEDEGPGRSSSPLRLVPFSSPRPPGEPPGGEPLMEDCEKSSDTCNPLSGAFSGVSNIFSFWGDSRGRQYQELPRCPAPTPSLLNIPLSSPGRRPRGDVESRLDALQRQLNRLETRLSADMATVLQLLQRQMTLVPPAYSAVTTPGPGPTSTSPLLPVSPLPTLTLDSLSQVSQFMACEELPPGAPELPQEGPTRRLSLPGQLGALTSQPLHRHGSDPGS
pIC50: −log10 of the molar value.
Let's look at some molecules and their measured pIC50.
assay_readout: pIC50

[[record]]
molecule = "O=C([C@@H]1C[C@H]1c1ccc(C(F)(F)F)cc1)N1CCN(S(=O)(=O)c2cc(CCO)cc(C(F)(F)F)c2)CC1"
readout_number = 6.05

[[record]]
molecule = "O=C([C@@H]1C[C@H]1c1ccc(C(F)(F)F)cc1)N1CCN(S(=O)(=O)c2cc(C(O)C(F)(F)F)cc(C(F)(F)F)c2)CC1 (mixture of isomers)"
readout_number = 7.22

[[record]]
molecule = "O=C([C@@H]1C[C@H]1c1ccc(C(F)(F)F)cc1)N1CCN(S(=O)(=O)c2cc(-c3ccn[nH]3)cc(C(F)(F)F)c2)CC1"
readout_number = 6.30


---

Assay: Plasma clearance in rhesus monkey
Format: ADME, organism-based, Macaca mulatta
assay_readout: clearance

[[record]]
sample_smiles = "O=C([C@@H]1C[C@H]1c1ccc(C(F)(F)F)cc1)N1CCN(S(=O)(=O)c2cc(-c3nnc[nH]3)cc(C(F)(F)F)c2)CC1"
assay_readout = "clearance"
result = "0.876 L/h/kg"

